System: OVCAR-3 ovarian
run_description: NCI-60 one-dose screen, 48 h
test_parameters: 10 µM unless noted
The panel holds about 83,000 compounds, 20% with a hit somewhere; the sample as a whole holds those more often. Active and inactive are the calls of the source. How the source made its calls: active means growth percent below 10; inactive means the rest.
Labels: t for active, f for inactive

1. COc1cc2c(cc1OCCCCCCN1CCN(c3ncnc4ccccc34)CC1)N=CC1CCCN1C2=O (configuration not stated): t
2. Cc1cc(Nc2ncc(Cl)c(Nc3ccccc3S(=O)(=O)C(C)C)n2)c(OC(C)C)cc1C1CCNCC1: t
3. CCNC(=O)Nc1nc2ccc(Oc3ccnc(C(=O)NC)c3)cc2s1: f
4. CCCCCCC1(/C=N/NC(N)=O)NC(=O)NC1=O (configuration not stated): f
5. CCN(CC)Cc1cc(Nc2cc(C(F)(F)F)c(C#N)c3nc4ccccc4n23)ccc1O: f
6. C=CCCCOC1[C@H](OCc2ccccc2)C(OCc2ccccc2)C(OC)O[C@@H]1CNC(=O)c1cccc(I)c1 (some centres not stated): f
7. O=C(NOC[C@H](O)CO)c1ccc(F)c(F)c1Nc1ccc(I)cc1F: f
8. Cc1cc2c(-c3nc4ccccn4c3NC34CC5CC(CC(C5)C3)C4)c(O)c(O)cc2c(O)c1-c1c(C)cc2c(-c3nc4ccccn4c3NC34CC5CC(CC(C5)C3)C4)c(O)c(O)cc2c1O: f
9. C1=C\COCc2cc(ccc2OCCN2CCCC2)Nc2nccc(n2)-c2cccc(c2)COC/1: t
10. C[C@@H](Nc1cc(F)cc(F)c1)c1cc(C(=O)N(C)C)cc2c(=O)cc(N3CCOCC3)oc12: f
11. O=C(CNc1nc(-c2ccc(Cl)cc2)cs1)Nc1ccc(-c2nc3ccccc3s2)cc1: f
12. CCOc1cc2ncc(C#N)c(Nc3ccc(F)c(Cl)c3)c2cc1NC(=O)/C=C/CN(C)C: t
13. O=C1CC(c2cccc(F)c2)c2c(n[nH]c2-c2ccc(Cl)cc2)N1 (configuration not stated): f
14. COc1cccc2cc(-c3nc(C4CCC(C(=O)O)CC4)n4ncnc(N)c34)[nH]c12 (configuration not stated): f
15. NC[C@@](O)(c1ccc(Cl)cc1)c1ccc(-c2cn[nH]c2)cc1: f
16. CN(C)C1CCN(C(=O)c2ccc(NC(=O)Nc3ccc(-c4nc(N5CCOCC5)nc(N5CCOCC5)n4)cc3)cc2)CC1: t
17. O=C(Cn1c(=O)ccn(CCCCCCCCOc2ccc(Br)cc2)c1=O)Nc1ccc(Oc2ccc(Cl)cc2)cc1: f
18. CNC(=O)c1cc(Oc2cccc3nc(Nc4ccc(Cl)c(F)c4)ccc23)ccn1: f
19. Cc1cccc(NC(=O)[C@@H]2c3ccccc3C(=O)N(c3ccc(Cl)cc3)[C@H]2c2ccc(Cl)cc2)n1: f
20. CCN(CC)CCOc1ccc(/C(=C(\C)c2ccc(Cl)cc2)c2ccc(Cl)cc2)cc1: f
21. C[C@@H]1COCCN1c1cc(C2([S@](C)(=N)=O)CC2)nc(-c2ccnc3[nH]ccc23)n1: f
22. Cc1[nH]c(/C=C2\C(=O)Nc3ccc(F)cc32)c(C)c1C(=O)NC[C@H](O)CN1CCOCC1: f
23. COc1cc(CCc2cc(NC(=O)c3ccc(N4C[C@@H](C)N[C@@H](C)C4)cc3)n[nH]2)cc(OC)c1: f
24. CC1(/C=N/NC(N)=S)NC(=O)NC1=O (configuration not stated): f
25. COc1ccc(-c2ccc3c(N4CCOC[C@@H]4C)nc(N4CCOC[C@@H]4C)nc3n2)cc1CO: f
26. COc1ncc(-c2ccc3nccc(-c4ccnnc4)c3c2)cc1NS(=O)(=O)c1ccc(F)cc1F: t
27. Nc1nc(N)c2nc(-c3cccc(O)c3)c(-c3cccc(O)c3)nc2n1: f
28. CN1CCN(CC(=O)Nc2ccc(-c3nc4ccccc4s3)cc2)CC1: f
29. CCCCN1C(=O)c2cccc3c(-c4ccc5c(c4)ncn5C4CCCCC4)ccc(c23)C1=O: f
30. Nc1c(Cl)cccc1[N+](=O)[O-]: f
31. ClCc1ccc(-c2ccc(Cn3cnc4nc(Cl)nc(Cl)c43)cc2)cc1: t
32. NN1C(=O)CSC1=S: f
33. CC[C@@H]1C(=O)N(C)c2cnc(Nc3ccc(C(=O)NC4CCN(C)CC4)cc3OC)nc2N1C1CCCC1: f
34. CC(C)Nc1cc(-c2c[nH]c(C(=O)N[C@H](CO)c3cccc(Cl)c3)c2)c(Cl)cn1: f
35. N#Cc1c(-c2ccc(C(F)(F)F)cc2)c(F)c(NCCC2CCC(O)C2)n2c1nc1ccccc12 (configuration not stated): f
36. O=C1CC(c2ccc3c(c2)OCO3)c2ncn(-c3ccc(Cl)cc3)c2N1 (configuration not stated): t
37. CC(C)(C)OC(=O)N1CCC(O)[C@@H](O[Si](c2ccccc2)(c2ccccc2)C(C)(C)C)[C@H]1/C=C/c1ccccc1 (some centres not stated): f

###

Test system: ACHN renal
run_description: NCI-60 one-dose screen, 48 h
test_parameters: 10 µM unless noted
Compounds without any hit were thinned out: in the full panel of roughly 83,000, 20% have a hit. Calls of active or inactive are those of the source. The calls were made as follows: active = growth percent below 10; inactive = the rest.
Labels: Yes (active), No (inactive)

1) C=CC[n+]1c(/C=C/C=C2\N(C)c3ccccc3C2(C)C)sc2ccc(OC)cc21: No
2) CCN1CCN(c2nc(C)cc(N(CCCNc3ccnc4cc(Cl)ccc34)Cc3ccc4c(c3)OCO4)n2)CC1: Yes
3) Cc1ccc(NC(=O)c2ccc(CN3CC[C@H](N(C)C)C3)c(C(F)(F)F)c2)cc1Nc1nccc(-c2cncnc2)n1: Yes
4) CCOC(=O)Sc1ncnc2nc[nH]c12: No
5) CC(=O)CC1CCCC1c1ccc2ccccc2c1 (centres undefined): No
6) Cc1cc2c(F)c(Oc3ncnn4cc(OC[C@@H](C)OC(=O)[C@H](C)N)c(C)c34)ccc2[nH]1: No
7) O=c1[nH]ccc2c(S(=O)(=O)N3CCCNCC3)cccc12: No
8) Cc1cc2c(-c3nc4ccccn4c3NC34CC5CC(CC(C5)C3)C4)c(O)c(O)cc2c(O)c1-c1c(C)cc2c(-c3nc4ccccn4c3NC34CC5CC(CC(C5)C3)C4)c(O)c(O)cc2c1O: Yes
9) ClCc1ccc(-c2ccc(Cn3cnc4nc(Cl)nc(Cl)c43)cc2)cc1: Yes
10) O=C(Nc1ccc(-c2ccnc(Nc3ccc(N4CCOCC4)cc3)n2)cc1)[C@@H]1CCCN1: No
11) Cc1nc(Nc2n[nH]c3c2CN(C(=O)N[C@H](CN(C)C)c2ccccc2)C3(C)C)c2sccc2n1: Yes
12) COc1ccc2c(c1OC)C(=O)O[C@@H]2[C@H]1c2c(c(C#CC#Cc3ccc(F)c(F)c3)c3c(c2OC)OCO3)CCN1C: No
13) COCCN1CCN(Cc2ccc(-c3n[nH]c4c3C(=O)c3c(NC(=O)NN5CCOCC5)cccc3-4)cc2)CC1: Yes
14) O=C(Nc1cccc([N+](=O)[O-])c1)c1ccc(Cl)c(Cl)c1: No
15) Cc1c(Cn2c(C)nc3c(C(=O)O)cc(N4CCOCC4)cc32)cccc1C(F)(F)F: No
16) CSc1nc2ncncc2[nH]1: No
17) C/C(=C(/c1ccc(Cl)cc1)c1ccc(OCCN2CCCCC2)cc1)c1ccccc1: No
18) O=C(NOCCO)c1ccc2cncn2c1Nc1ccc(I)cc1F: No
19) Cc1cc(Nc2ncc(Cl)c(Nc3ccccc3S(=O)(=O)C(C)C)n2)c(OC(C)C)cc1C1CCNCC1: Yes
20) C=CC(=O)Nc1cccc(Nc2nc(Nc3ccc(N4CCN(C(C)=O)CC4)cc3OC)ncc2C(F)(F)F)c1: Yes
21) CCCS(=O)(=O)Nc1ccc(F)c(C(=O)c2c[nH]c3ncc(-c4ccc(Cl)cc4)cc23)c1F: No
22) FC(F)c1nc2ccccc2n1-c1nc(N2CCOCC2)nc(N2CCOCC2)n1: Yes
23) CC(=O)C1CC(C)CCC1C(C)C (centres undefined): No
24) COc1ccc(-c2cc3c(oc2=O)-c2ccccc2OC3OC(C)=O)cc1 (centres undefined): No
25) CCc1ccc(C2=C(O)C(=O)C(c3ccc(CC)cc3)=C(O)C2=O)cc1: Yes
26) O=C(Nc1ccc(N=Nc2ccccc2)cc1)c1cccc2ccccc12: No
27) O=C(Nc1ccc(Nc2ncnc3sc4c(c23)CCOC4)cc1)Nc1ccc(Cl)c(C(F)(F)F)c1: No
28) COc1ccc2c(OCc3nnc4ccc(-c5ccccc5)nn34)ccnc2c1: No
29) O=C(NOC[C@H](O)CO)c1ccc(F)c(F)c1Nc1ccc(I)cc1F: No
30) NS(=O)(=O)c1ccc(CCN2C(=O)/C(=C\c3ccc(Cl)cc3)C=C2c2ccc3ccccc3c2)cc1: No
31) CO/C=C/C(=O)c1cc2cnc3c(=N)cc(NC(=O)C(C)C)c([nH]1)c23: Yes
32) Cc1ccc2oc(=O)cc(-c3cc(-c4cc5ccccc5oc4=O)nc(N)c3C#N)c2c1: No
33) CC1(/C=N/NC(N)=S)NC(=O)NC1=O (centres undefined): No
34) FC(F)(F)c1ccc(CNc2ccc(Cc3c[nH]c4ncc(Cl)cc34)cn2)cn1: No
35) CC(=O)C(C(C)=O)C(c1ccccc1)C(C(C)=O)C(C)=O: No
36) Fc1ccc(NCc2cn(-c3ccccc3)nc2-c2ccc(OCc3ccccc3)cc2)cc1Cl: No
37) CCN(CC)CCNC(=O)c1c(C)[nH]c(/C=C2\C(=O)Nc3ccc(F)cc32)c1C: Yes
38) Cc1cc(C(O)CN(C)C)cc2c1ccc1cc(C(C)C)ccc12 (centres undefined): Yes
39) COc1cc2c(cc1OCCCN1Cc3ccc(OCCCCC(=O)N4CCC(CCN5CCCC5)CC4)cc3C1)N=C(N)C21CCCC1: No
